The compounds listed here are annotated with their ED50.
- Test system: tonic seizure
- assay.notes: Antianxiety effect (bicuculline-induced tonic seizure)
- Type: in vivo
- condition.details: Mus musculus, po, 1 hour before bicuculline 0.6 mg/kg i.v., male ddY-mice; read-out: ED50 (prevention of tonic seizure in half of the animals)
Record the value in mg/kg, omitting the unit from your answer.

If you can, please state the reported ED50 value of Nc1nc(-c2ccc(CCN3CCN(c4cccc(Cl)c4)CC3)s2)cs1 [Example 55] .
50

If you can, please state the reported ED50 value of Nc1nc(-c2ccc(CCN3CCN(c4cccc(C(F)(F)F)c4)CC3)s2)cs1 [Example 47] .
21

Reference source for all entries: patent US4720493A
